Test system: GC cell lines (AGP-01, ACP-02, ACP-03)
Assay Protocol: Growth inhibition assay, all GC cell lines
Type: cell-based, human
Test Settings: 72 h incubation
Quantity: pIC50
Quick note: pIC50 means taking -log10 of the concentration in moles per liter.

(Q) Field: pIC50 (GC cell lines (AGP-01, ACP-02, ACP-03)). Entry: Cc1nc(Nc2ncc(C(=O)Nc3c(C)cccc3Cl)s2)cc(N2CCN(CCO)CC2)n1
(A) 6.00

====

Test system: AGP-01 cells
Assay Protocol: Growth inhibition assay (resazurin)
Test Settings: 2D culture, 72 h, value (± SD)
Quantity: IC50

(Q) Would you mind telling me what IC50 value was observed for CCN(CC)CCNC(=O)c1c(C)[nH]c(/C=C2\C(=O)Nc3ccc(F)cc32)c1C ?
(A) 1.53 µM

(Q) Would you mind telling me what IC50 value was observed for CN1CCN(CCOc2cc(OC3CCOCC3)c3c(Nc4c(Cl)ccc5c4OCO5)ncnc3c2)CC1 ?
(A) 2.38 µM

(Q) Would you mind telling me what IC50 value was observed for CCCS(=O)(=O)Nc1ccc(F)c(C(=O)c2c[nH]c3ncc(-c4ccc(Cl)cc4)cc23)c1F ?
(A) > 20 µM

(Q) Would you mind telling me what IC50 value was observed for CO[C@H]1C[C@@H]2CC[C@@H](C)[C@@](O)(O2)C(=O)C(=O)N2CCCC[C@H]2C(=O)O[C@H]([C@H](C)C[C@@H]2CC[C@@H](OCCO)[C@H](OC)C2)CC(=O)[C@H](C)/C=C(\C)[C@@H](O)[C@@H](OC)C(=O)[C@H](C)C[C@H](C)/C=C/C=C/C=C/1C ?
(A) > 20 µM

(Q) Would you mind telling me what IC50 value was observed for COc1cc2nccc(Oc3ccc(NC(=O)Nc4cc(C)on4)c(Cl)c3)c2cc1OC ?
(A) > 20 µM

(Q) Would you mind telling me what IC50 value was observed for CC[C@@H]1/C=C(\C)C[C@H](C)C[C@H](OC)[C@H]2O[C@@](O)(C(=O)C(=O)N3CCCC[C@H]3C(=O)O[C@H](/C(C)=C/[C@@H]3CC[C@H](Cl)[C@H](OC)C3)[C@H](C)[C@@H](O)CC1=O)[C@H](C)C[C@@H]2OC ?
(A) > 20 µM

(Q) Would you mind telling me what IC50 value was observed for Cc1ccc(Nc2nccc(N(C)c3ccc4c(C)n(C)nc4c3)n2)cc1S(N)(=O)=O ?
(A) > 20 µM
